Documented pEC50 across a set of binders
- Measurement target: T1, human CD24 (human, UniProt P25063 27-59, heavily glycosylated, GPI-anchored (as described in the background))
- T1 construct: whole, on cells; Target of all cell-based FACS assays; also called hCD24; Cluster of differentiation 24
- T1 chain (looked up): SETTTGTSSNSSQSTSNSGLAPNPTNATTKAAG
- Assay: FACS, CHOK1-hCD24 cells
Scale note: pEC50 = -log10(concentration in M).

100F2E3 (antibody, V domains shown, mouse monoclonal antibody) VH: QVQLQQPGAELVRPGSSVKLSCKTSDYTFTSYWMDWVKQRPGQGLEWIGNIYPSDSKTHSNQKFRDKATLTVDKSSSTAYMQLNSLTSEDSAVYYCARRGGYYGYAMDYWGQGTSVTVSS VL: DIVMTQSPSSLSVSAGEKVTMSCKSSQSLLNSGNQDNYLAWYQQKPGQPPKLLIYGASIRESGVPDRFTGSGSGTDFTLTISSVQAEDLAVYYCQNDHSYPYTFGGGTKLEIK	8.77

stdin: Return reported pEC50; argument: 58F10-1F6 (antibody, V domains shown, mouse monoclonal antibody) VH: EVQLRQSGPELVKPGAAVKISCKASGYSFTGYHMNWVKQSPEKSLEWIGEINPITSGITYNQIFKAKATLTVDKSSSTAYLQLKSLTSEDSAVYYCTRRDYGTSLDYWGQGTTLTVSS VL: DIQMTQITSSLSASLGDRVTITCRASQDISNYLNWYQQKPDGTVKLLIYYTSRLLSGVPSRFSGSGSGTDYSLTISNLEQEDIATYFCQQDHTLPRTFGGGTKLEIR
stdout: 8.01

stdin: Entry under review: 73H5-1G2 (antibody, V domains shown, mouse monoclonal antibody) VH: QVQLKQSGPGLVQPSQSLSITCTVSGFSLTNYGVHWIRQSPGKGLEWLGVIWRGGSTDYNAAFMSRLSITKDNSKSQVFFQMNSLQAADTAIYYCANNYGYDCFAYWGQGTLVTVSA VL: DVQITQSPSYLAASPGETITINCRASKSIIKYLAWYQEKPGKTNKLLIYSGSTLQSGIPSRFSGSGSGTDFTLTITSLEPEDFAMYYCQQHNEYPLTFGAGTRLELK . Reported pEC50?
stdout: 7.62

Source listed as patent US20240052052A1.
